test: Pharmacokinetic study of DPTM in rats after i.v., i.m. and p.o. administration (HPLC-MS/MS, non-compartmental); format: in vivo; details: Sprague-Dawley, rat, plasma, im, 75 mg/kg, i.m., range over 10, 25 and 75 mg/kg doses, read-out: area under the curve from 0 to 48 h (AUC0→t)
MEASURED_METRIC: AUC(0-t)

> print(dat)
                                   compound    experimental.value
1  C=CC1(C)CC(OC(=O)CSc2nc(N)cc(N)n2)C2(C)C(C)CCC3(CCC(=O)C32)C(C)C1O (stereo not shown)  1520 to 5700 ng·h/mL
